- TARGET UNDER TEST: human DGKα (Homo sapiens, UniProt P23743)
- Construct: TVMV protease cleavage site (C); Hexa-His (C); made in house; host or cells: Sf9 insect cells (baculovirus, Bac-to-Bac)
- Sequence (P23743 with tags, fused parts or gaps): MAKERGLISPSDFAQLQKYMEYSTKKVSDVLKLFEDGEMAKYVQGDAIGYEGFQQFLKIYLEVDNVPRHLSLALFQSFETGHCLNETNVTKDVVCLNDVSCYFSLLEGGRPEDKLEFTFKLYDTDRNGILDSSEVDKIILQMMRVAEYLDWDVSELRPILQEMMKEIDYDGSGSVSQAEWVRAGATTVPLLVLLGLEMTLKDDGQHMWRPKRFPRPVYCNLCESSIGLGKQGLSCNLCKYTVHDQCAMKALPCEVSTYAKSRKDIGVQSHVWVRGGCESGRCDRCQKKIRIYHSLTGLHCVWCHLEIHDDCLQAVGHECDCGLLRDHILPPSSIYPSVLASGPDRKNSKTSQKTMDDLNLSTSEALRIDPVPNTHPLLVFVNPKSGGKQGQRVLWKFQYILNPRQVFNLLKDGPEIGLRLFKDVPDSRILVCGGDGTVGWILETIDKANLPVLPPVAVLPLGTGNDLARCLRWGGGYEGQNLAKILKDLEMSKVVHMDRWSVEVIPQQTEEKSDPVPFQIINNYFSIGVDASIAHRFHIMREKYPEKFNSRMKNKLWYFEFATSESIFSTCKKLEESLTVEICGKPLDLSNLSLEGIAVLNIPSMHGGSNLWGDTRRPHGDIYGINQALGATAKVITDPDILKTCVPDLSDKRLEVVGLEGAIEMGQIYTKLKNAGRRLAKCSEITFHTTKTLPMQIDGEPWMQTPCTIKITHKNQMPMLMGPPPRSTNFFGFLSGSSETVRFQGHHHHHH
- ASSAY TEXT: DGKα LIPGLO assay (extruded liposome substrate), in vitro DGK inhibition
- Assay type: biochemical
- CONDITION: liposome (LIPGLO) assay; read-out: DGKa LIPGLO IC50
pIC50: −log10 of the molar value.
Lab note: anything with pIC50 at or over 6 counts as Criterion met; the rest go in Criterion not met.

[
  {
    "COMPOUND": "CC(c1c(F)cc(F)cc1F)N1C[C@H](C)N(c2cc(=O)n(C)c3ccc(C#N)nc23)C[C@H]1C (single isomer, unassigned) [Example 432]",
    "CAT": "Criterion met"
  },
  {
    "COMPOUND": "CC(C)C(C)(O)C1CN(c2cc(=O)n(C)c3ccc(C#N)nc23)CCN1C(c1ccc(F)cc1)c1ccc(F)cc1 (single isomer, unassigned) [Example 88]",
    "CAT": "Criterion not met"
  },
  {
    "COMPOUND": "C[C@H]1CN(C(c2ccc(F)cc2)c2ccc(F)cc2)CCN1c1cc(=O)n(C)c2ccc(C#N)nc12 [Example 134]",
    "CAT": "Criterion not met"
  },
  {
    "COMPOUND": "CC(C)[C@H]1CN(c2c(C#N)c(=O)n(C)c3ccc(C#N)nc23)CCN1C(c1ccc(F)cc1)c1ccc(F)cc1 [Example 12]",
    "CAT": "Criterion not met"
  },
  {
    "COMPOUND": "COCCOc1cc(C(C)N2C[C@H](C)N(c3cc(=O)n(C)c4ccc(C#N)nc34)C[C@H]2C)ccc1C#N (single isomer, unassigned) [Example 1321]",
    "CAT": "Criterion not met"
  },
  {
    "COMPOUND": "CC[C@H]1CN(C(c2cccc(F)c2)c2ccc(C)cn2)[C@H](C)CN1c1cc(=O)n(C)c2ccc(C#N)nc12 (single isomer, unassigned) [Example 1125]",
    "CAT": "Criterion met"
  }
]

---

Measured pIC50, listed per entry.
- TARGET UNDER TEST: human DGKα (Homo sapiens, UniProt P23743)
- Construct: TVMV protease cleavage site (C); Hexa-His (C); made in house; host or cells: Sf9 insect cells (baculovirus, Bac-to-Bac)
- ASSAY TEXT: DGKα LIPGLO assay (extruded liposome substrate), in vitro DGK inhibition
- Format: biochemical
- CONDITION: liposome (LIPGLO) assay; read-out: DGKa LIPGLO IC50
pIC50: −log10 of the molar value.

[
  {
    "COMPOUND": "Cn1c(=O)cc(N2CCN(C(c3ccc(F)cc3)c3ccc(F)cc3)C(C(=O)OC3CC3)C2)c2nc(C#N)ccc21 (single isomer, unassigned) [Example 106]",
    "pIC50": 3.62
  },
  {
    "COMPOUND": "Cn1c(=O)cc(N2CCN(C(c3ccc(F)cc3)c3ccc(F)cc3)C(C(N)=O)C2)c2nc(C#N)ccc21 (single isomer, unassigned) [Example 41]",
    "pIC50": 4.85
  },
  {
    "COMPOUND": "CC[C@H]1CN(C(c2ccc(F)cc2)c2ccc(Cl)cc2)[C@H](C)CN1c1cc(=O)n(C)c2ccc(C#N)nc12 (stereo partly drawn) [Example 1128]",
    "pIC50": 6.14
  },
  {
    "COMPOUND": "CC[C@@H]1CN(c2cc(=O)n(C)c3ccc(C#N)nc23)[C@@H](C)CN1C(c1ccc(Cl)cc1)c1ccc(F)cn1 (stereo partly drawn)",
    "pIC50": 6.70
  },
  {
    "COMPOUND": "C[C@H]1CN(c2cc(=O)n(C)c3ccc(C#N)nc23)CCN1C(c1ccc(F)cc1)c1ccc(F)cc1",
    "pIC50": 4.68
  },
  {
    "COMPOUND": "Cc1nc2ccc(C(C)N3C[C@H](C)N(c4cc(=O)n(C)c5ccc(C#N)nc45)C[C@H]3C)cc2s1 (single isomer, unassigned) [Example 1264]",
    "pIC50": 5.00
  }
]
